# Lookup of reported inhibition in vivo at 100 mg/kg keyed by entry
- System: rat adjuvant arthritis
- Test protocol: Effect on the Development of Adjuvant Arthritis
- Assay type: in vivo, Fischer male rats
- Conditions: Rattus norvegicus, 504 h; 100 mg/kg, oral, 21 days after adjuvant, mean ± standard error; read-out: Paw edema inhibition, Treated paw
The reply should contain only the number, in %.

| Compound | Target system | inhibition in vivo at 100 mg/kg (%) |
| --- | --- | --- |
| COC(=O)c1ccc(-c2nc3c(OC(C)=O)cccc3s2)cc1 [Example 8] | rat adjuvant arthritis | 29.3 |
| CC(=O)Oc1ccc2nc(-c3ccc(C)cc3)sc2c1 [B] | rat adjuvant arthritis | -7.6 |
| CC(=O)Oc1cccc2sc(-c3ccc(C)cc3)nc12 [Example 5] | rat adjuvant arthritis | 31.8 |
| CC(=O)Oc1cccc2nc(-c3ccc(C)cc3)sc12 [C] | rat adjuvant arthritis | 16.6 |
| COc1ccc(-c2nc3c(OC(C)=O)cccc3s2)cc1 [Example 6] | rat adjuvant arthritis | 24.7 |
| CC(=O)Oc1ccc2sc(-c3ccc(C)cc3)nc2c1 [A] | rat adjuvant arthritis | 12.9 |

Fill in reported inhibition in vivo at 100 mg/kg for this entry: O=C([O-])c1ccccc1Nc1cc(Cl)ccc1C(=O)[O-].[Na+].[Na+] [Lobenzarit disodium]
15.1

State its inhibition in vivo at 100 mg/kg: CC(=O)Oc1cccc2sc(-c3ccc(C(=O)O)cc3)nc12 [Example 7]
29.9

All values here come from patent US4910211A.
